Where these numbers come from: patent EP1373238B1

# Test system: late third instar of Spodoptera litura
# measurement description: Antifeedant activity, painted leaf disks of Ricinus cummunis
# Format: in vivo
# particulars: 25 µg/sq.cm., 24 hr
property measured: Percent leaf consumption 24 hr
Record the result as number plus unit.

Observe how each entry below is paired with its result.
CCCCOC(=S)SCSC(=S)OCCCC [Compound 5, Methylene Bis (n-butytxanthate)]	20.7%
CC(C)COC(=S)SCc1cccc(F)c1 [Compound 3, m-Fluorobenzyl (isobutylxanthate)]	32.8%
CCCCOC(=S)SCc1ccc(CSC(=S)OCCCC)cc1 [Compound 12, p-Xylene Bis (n-butylcanthate)]	24.6%

Next:
# S=C(OCC1CCCO1)SCSC(=S)OCC1CCCO1 (stereo not shown) with late third instar of Spodoptera litura: Percent leaf consumption 24 hr is 60.2%
